- target: Inadl_10, Q8NI35
- Sequence (Q8NI35 1673-1763): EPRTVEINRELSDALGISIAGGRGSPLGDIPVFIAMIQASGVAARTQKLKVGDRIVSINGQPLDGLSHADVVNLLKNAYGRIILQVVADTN
- assay: holdup assay
- Design: key: below the threshold = too weak to quantify, mostly under pKd 3.1 to 4
- assay.context: plain residues with an end cap or a label only (N-terminal biotin on a linker: ado-ado)
quantity.kind: pKd

// solved cases for pKd follow
binder="RQKEVRESKC [SCN8A, Q9UQD0]" quantity_kind=pKd observed_value="below the threshold"
binder="EDLEDEWEVI [TECPR2, O15040]" quantity_kind=pKd observed_value="below the threshold"
binder="LAHVKHKEQI [AQP3, Q92482]" quantity_kind=pKd observed_value="below the threshold"
binder="AQRARSPSDV [GPR12, P47775]" quantity_kind=pKd observed_value="below the threshold"
binder="EKCGKEFSEF [PRKACA, P17612]" quantity_kind=pKd observed_value="below the threshold"

# lookup: pKd of ARGPPRESEV [FAM110D, Q8TAY7]
below the threshold

Give the measured pKd of SFISKKEWYV [NECTIN1, Q15223] .
below the threshold

Give the measured pKd of DTKNYKQTSV [CRIPT, Q9P021] .
below the threshold

Value source: paper PMC9482650
